Target: mutant form of the human GPR119 receptor (Homo sapiens, UniProt Q8TDV5, S329A/T327A)
Construct: T327 & S329 changed to alanines
Sequence (Q8TDV5 2-335 T327A/S329A): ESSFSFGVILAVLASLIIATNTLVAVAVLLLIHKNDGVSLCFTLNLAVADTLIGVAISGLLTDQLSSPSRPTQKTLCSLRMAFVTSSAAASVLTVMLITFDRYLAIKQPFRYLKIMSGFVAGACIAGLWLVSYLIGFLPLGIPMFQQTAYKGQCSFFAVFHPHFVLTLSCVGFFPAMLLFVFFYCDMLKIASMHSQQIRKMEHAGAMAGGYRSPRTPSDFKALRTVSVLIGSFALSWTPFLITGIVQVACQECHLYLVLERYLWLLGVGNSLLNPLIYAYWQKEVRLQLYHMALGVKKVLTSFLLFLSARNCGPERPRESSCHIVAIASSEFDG
Assay: LANCE cAMP-384 assay in HEK293 cells stably expressing a mutant form of the human GPR119 receptor
Settings: HEK293 cells stably expressing mutant human GPR119, LANCE cAMP-384 Kit, 20 min at 37° C.
pEC50: −log10 of the molar value.
Would you mind labelling by pEC50? At or over 7 is yes, under is no.

1. O=C(c1ccc(-n2cnnn2)cc1)N(C1CC1)C1CCN(c2ncc(Cl)cn2)CC1 [Example 110] :: no
2. Cc1nnnn1-c1ccc(C(=O)N(C2CC2)C2CCN(c3ncc(Cl)cn3)CC2)cc1 [Example 111] :: no
3. Cc1nccn1-c1ccc(C(=O)N(C2CC2)C2CCN(c3nc(C(C)C)no3)CC2)cc1 [Example 96] :: no
4. O=C(c1ccc(-n2cnnn2)cc1)N(C1CC1)C1CCN(c2ncc(C(F)(F)F)cc2F)CC1 [Example 117] :: yes
5. O=C(c1ccc(-n2cnnn2)c(F)c1)N(C1CC1)C1CCN(c2ncc(Cl)cn2)CC1 [Example 115] :: yes
6. CCc1cnc(N2CCC(N(C(=O)c3ccc(-n4ncnc4C)c(F)c3)C3CC3)CC2)nc1 [Example 106] :: no

-- ask // inclusive: pEC50 at least 7? input: Cc1nccn1-c1ccc(C(=O)N(C2CC2)C2CCN(c3ncc(C(F)(F)F)cc3F)CC2)cc1F [Example 93]
-- reply no
